Biological target: T1, human VISTA expressed on the cell surface (HEK293 cells transfected with human VISTA cDNA); native on human … (human, UniProt Q9H7M9 33-311)
T1 construct: whole, on cells; also called PD-1H
T1 sequence (looked up): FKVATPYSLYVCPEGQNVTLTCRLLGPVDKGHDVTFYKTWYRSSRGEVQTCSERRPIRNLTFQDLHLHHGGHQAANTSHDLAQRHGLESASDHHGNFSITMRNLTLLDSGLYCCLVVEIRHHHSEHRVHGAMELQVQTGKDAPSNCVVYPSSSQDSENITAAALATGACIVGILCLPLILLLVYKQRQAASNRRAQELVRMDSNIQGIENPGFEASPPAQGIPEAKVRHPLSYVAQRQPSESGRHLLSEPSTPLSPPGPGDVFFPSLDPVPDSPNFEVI
Experiment: flow cytometry on HEK293 cells transfected with human VISTA, detection with anti-human Ig; EC50 table under the graph
Quick reference: EC50 of the listed items.
measurement.type: EC50

# binder, measurement.type, experimental.value
records = [
    ("humanized anti-VISTA antibody 14D8-HZD2 (antibody, human IgG1, kappa, V domains shown, kappa light chain) VH: EVQLVESGGGLVQPGGSLRLSCAASGFDLSSAYYMCWVRQAPGKGLEWVGCIATGSGSTYYASWAKGRFTISRDNSKNTLYLQMNSLRAEDTAVYYCARAPYYSYDGYDYALNLWGQGTLVTVSS VL: DIQMTQSPSSVSASVGDRVTITCQASEDIVTYLAWYQQKPGKAPKLLIYAASTLASGVPSRFSGSGSGTDFTLTISSLQPEDFATYYCQQTYNYADTDNAFGGGTKVEIKR", "EC50", "2.83 nM"),
    ("humanized anti-VISTA antibody 41A11-HZD2 (antibody, human IgG1, kappa, V domains shown, kappa light chain) VH: EVQLLESGGGLVQPGGSLRLSCAASGFSFSSSYYMCWVRQAPGKGLEWVGCFYAGFSGGTYYASWAKGRFTISRDNSKNTLYLQMNSLRAEDTAVYYCAKGANTYGYTGYDYAGDYFTLWGQGTLVTVSS VL: DIQMTQSPSTLSASVGDRVTITCQASQNIGSNLAWYQQKPGKAPKLLIYAASNLESGVPSRFSGSGSGTEFTLTISSLQPDDFATYYCQSAYYSSVDSYNTFGGGTKVEIKR", "EC50", "1.84 nM"),
    ("humanized anti-VISTA antibody 29G7-HZD4 (antibody, human IgG1, kappa, V domains shown, kappa light chain) VH: EVQLVESGGGLVQPGGSLRLSCAASGFSLSSYAMGWVRQAPGKGLEWVGIIIVSGNIYYASWAKGRFTISRDNSKNTLYLQMNSLRAEDTAVYYCARGDGYTYGLWGQGTLVTVSS VL: EIVMTQSPATLSLSPGERATLSCQASQSVYSRYLAWYQQKPGQAPRLLIYSASTLASGIPARFSGSGSGTDFTLTISSLQPEDFAVYYCQGTFYIPDYIDGFGGGTKVEIKR", "EC50", "0.477 nM"),
    ("humanized anti-VISTA antibody 3A5-HZD (antibody, human IgG1, kappa, V domains shown, kappa light chain) VH: EVQLVESGGGLVQPGGSLRLSCAASGFSLSSENWICWVRQAPGKGLEWVGCICGANGGSAYHANWVNGRFTISRDNSKNTLYLQMNSLRAEDTAVYYCARAAGVSNAYYFDLWGQGTLVTVSS VL: DIQMTQSPSSVSASVGDRVTITCQASQYIYINLAWYQQKPGKAPKLLIYDASDLASGVPSRFSGSGSGTDFTLTISSLQPEDFATYYCQCTYGGSTYGNAFGGGTKVEIKR", "EC50", "0.483 nM"),
    ("humanized anti-VISTA antibody 14F1-HZD2 (antibody, human IgG1, kappa, V domains shown, kappa light chain) VH: EVQLLESGGGLVQPGGSLRLSCAASGFSFSSSYYMCWVRQAPGKGLEWVACFYAGFSGSTYYASWAKGRFTISRDNSKNTLYLQMNSLRAEDTAVYYCAKGASTYGYTGYDYAGDYFILWQPGTLVTVSS VL: DIQMTQSPSSVSASVGDRVTITCQASQNIYSNLAWYQQKPGKAPKLLIYAASNLASGVPSRFSGSGSGTDFTLTISSLQPEDFATYYCQSAYYSSSADSYNAFGGGTKVEIKR", "EC50", "2.95 nM"),
]
